- Test system: MS2 coat protein
- method.description: apparent KD of MS2 coat protein; higher = weaker reporter binding
- measurement.parameters: Eterna round: R107; input ligand: arginine 13.2 mM
attribute.measured: apparent KD of MS2 coat protein (nM)
Give the value in nM but do not write nM after it.

These recorded examples may help you get a feel for the data.
What value of measured apparent KD of MS2 coat protein is listed for UACUUGCUGACGGCCGCCACUAGAACAUGAGGAUCACCCAUGUACGGCGGCCGUCAUGGGUGGACUAGGACCGGGUCAGCAAGAU [(Trp1)-(Ms2)-(T)'-(M)'-(Trp2)_Design6] ?
10.7

What value of measured apparent KD of MS2 coat protein is listed for AAUAUAAAAUAAAGAAAAUUUAUAUCUGAUACCAGACUCUCAUGGGUCCCUUGGCAGCAGUAACAUGAGGAUCACCCAUGUAUUA [JR_Nu_SSTheophyA_Sub026] ?
67.7

Further cases:
What value of measured apparent KD of MS2 coat protein is listed for ACACAUGAGGAUCACCCAUGUGCGCUGGAAGGAGCGCAGAAUCAUGCAGGUAGGUCGCCAGUGCCCUCUACUAAAGGGAAAAGAG [Diatsoceri] ?
66.5
